# Tested on: U2OS
# measurement_notes: Multiplex assay against U2OS
# Assay type: toxicity, cell-based
# test_conditions: human, 12 h, 10 µM, compound concentration 10 uM, replicate 2
measured_attribute: Population Apoptotic (%)

• O=C(c1cc2c(cc1F)OC(c1ccc(F)cc1)(c1ccc(Cl)cc1Cl)O2)N1CCOCC1 (stereo not given) = 71
• Cc1c[nH]c2nccc(Oc3c(F)cc(Nc4cc(Cl)nc(N)n4)cc3F)c12 [BAY-549] = 40
• CNC(=O)Nc1ccc2c(c1)[C@@]1(CC2)OC(=O)N(CC(=O)N(Cc2ccc(F)cc2)[C@@H](C)C(F)(F)F)C1=O [A-486] = 33
• C=CC(=O)Nc1cccc(Sc2nc(Nc3ccc(N4CCN(C)CC4)cc3)ncc2Cl)c1 = 44
• CC1=C(C(=O)Nc2cc3cn[nH]c3cc2F)C(c2ccc(C(F)(F)F)cc2)CC(=O)N1 (stereo not given) = 50
• C[C@]12CC[C@@H]3c4ccc(O)cc4CC[C@H]3[C@@H]1CC[C@@H]2O [ESTRADIOL] = 25
• CC(C)Oc1ccccc1C(=O)Nc1ccccc1C(=O)Nc1cccc(S(=O)(=O)C(F)(F)F)c1 = 90
• CNC(=O)Nc1ccc(-c2nc(N3CC4CCC(C3)O4)c3cnn(C4CCC5(CC4)OCCO5)c3n2)cc1 = 25
• CC(C)(C)NC[C@H](O)COc1nsnc1N1CCOCC1 [TIMOLOL] = 33
• Cc1ccc2c(c1)c1c(n2CCc2ccc(C)nc2)CCN(C)C1 [LATREPIRDINE] = 88

###

Overview of recorded Population Hoechst High Intensity Objects (%) for various compounds
# Test system: HEK-293T
# measurement_notes: Multiplex assay against HEK293T
# Assay type: toxicity, cell-based
# test_conditions: human, 24 h, 1 µM, compound concentration 1 uM, replicate 1
measured_attribute: Population Hoechst High Intensity Objects (%)

• Cc1cccc(CN2CCN(C(c3ccccc3)c3ccc(Cl)cc3)CC2)c1.Cl.Cl (configuration not stated) = 17
• COc1ccc(-c2ccc3ncc4c(c3c2)n(-c2ccc(N3CCNCC3)c(C(F)(F)F)c2)c(=O)n4C)cn1.O=C(O)/C=C\C(=O)O = 20
• C=CC(=O)Nc1cccc(Oc2nc(Nc3ccc(N4CCN(C)CC4)cc3OC)ncc2Cl)c1 = 16
• Cc1ccc2c(c1)c1c(n2CCc2ccc(C)nc2)CCN(C)C1 [LATREPIRDINE] = 14
• CC(C)OC(=O)N1CCC(Oc2ncnc3c2cnn3-c2ccc(S(C)(=O)=O)cc2F)CC1 = 15
• Cc1c[nH]c2nccc(Oc3c(F)cc(Nc4cc(Cl)nc(N)n4)cc3F)c12 = 10
• CC1=C(C(=O)Nc2cc3cn[nH]c3cc2F)C(c2ccc(C(F)(F)F)cc2)CC(=O)N1 (configuration not stated) = 12
• CC(C)NC(=O)N1CC[C@H](NC2=Nc3cc(F)ccc3N(CC(F)F)c3ccc(Cl)cc32)C1 = 20
• O=c1[nH]c2ccccc2n1C1CCN(Cc2ccc(-c3[nH]c4cc5ncnc5cc4nc3-c3ccccc3)cc2)CC1 = 6
• CNC(=O)Nc1ccc2c(c1)[C@@]1(CC2)OC(=O)N(CC(=O)N(Cc2ccc(F)cc2)[C@@H](C)C(F)(F)F)C1=O = 10
• COc1ccccc1CN[C@H]1C2CCN(CC2)[C@H]1C(c1ccccc1)c1ccccc1 = 16
• C[C@]12CC[C@@H]3c4ccc(O)cc4CC[C@H]3[C@@H]1CC[C@@H]2O = 16
• COC(=O)C1=C(C)NC(C)=C(C(=O)OCCCN2CCC(c3ccccc3)(c3ccccc3)CC2)[C@H]1c1cccc([N+](=O)[O-])c1 = 11
• CCc1nn(CCCN2CCN(c3cccc(Cl)c3)CC2)c(=O)n1CCOc1ccccc1.Cl [NEFAZODONE HYDROCHLORIDE] = 6
• C=CC(=O)Nc1ccc2[nH]c(=O)n(C3CCN(Cc4ccc(-c5nc6cc[nH]c(=O)c6cc5-c5ccccc5)cc4)CC3)c2c1 = 11
• CC(C)(C)NC[C@H](O)COc1nsnc1N1CCOCC1 = 12
• O=c1cc(N2CCOCC2)oc2c(-c3cccc4c3sc3ccccc34)cccc12 = 12

Every entry's value here was drawn from ChEMBL document CHEMBL4689842.
